Sourced from patent US20250186433A1

# assayed.target: ACSS2 (Homo sapiens)
# Sequence (Q9NR19 whole entry): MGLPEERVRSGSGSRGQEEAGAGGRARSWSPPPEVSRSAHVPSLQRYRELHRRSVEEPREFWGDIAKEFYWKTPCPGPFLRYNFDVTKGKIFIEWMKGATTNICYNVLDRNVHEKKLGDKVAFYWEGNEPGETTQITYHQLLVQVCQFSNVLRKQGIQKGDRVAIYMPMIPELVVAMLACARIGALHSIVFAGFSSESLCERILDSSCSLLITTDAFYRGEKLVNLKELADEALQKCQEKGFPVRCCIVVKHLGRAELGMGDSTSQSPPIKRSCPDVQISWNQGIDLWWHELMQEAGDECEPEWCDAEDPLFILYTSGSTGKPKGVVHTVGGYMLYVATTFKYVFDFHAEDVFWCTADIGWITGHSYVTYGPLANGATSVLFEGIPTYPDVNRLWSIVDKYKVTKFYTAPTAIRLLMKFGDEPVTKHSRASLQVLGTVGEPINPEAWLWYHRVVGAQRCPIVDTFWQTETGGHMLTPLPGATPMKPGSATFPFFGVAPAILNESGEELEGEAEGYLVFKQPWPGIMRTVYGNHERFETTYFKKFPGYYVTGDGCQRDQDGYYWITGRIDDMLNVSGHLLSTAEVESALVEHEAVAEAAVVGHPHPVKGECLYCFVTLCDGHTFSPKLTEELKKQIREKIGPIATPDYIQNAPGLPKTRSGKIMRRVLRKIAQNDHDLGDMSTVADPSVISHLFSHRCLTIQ
# protocol.description: Acyl-CoA synthetases selectivity panel: ACSS2
# Type: biochemical
# Set-up: purchased Cusabio, China
# condition.details: human recombinant protein, substrate acetate, AMP readout by HPLC; read-out: HPLC based activity assays IC50 (UM) ACSS2
assay.metric: IC50

Record excerpt, results attached:
COc1ccc(N2N=C(C)C(C(=O)Nc3cccc(-c4ccco4)c3)C2=O)cc1 (stereo not shown) = < 1 nM
COC(=O)c1cccc(N2N=C(C)C(C(=O)Nc3cccc(-c4ccco4)c3)C2=O)c1 (stereo not shown) = < 1 nM
CC1=NN(c2ccccc2)C(=O)C1C(=O)Nc1cccc(C(C)(F)F)c1 (stereo not shown) = 1 to 10 nM
CC1=NN(c2ccccc2)C(=O)C1C(=O)Nc1cccc(-c2ccco2)c1 (stereo not shown) = < 1 nM
CC1=NN(c2ccc(C(F)(F)F)cc2)C(=O)C1C(=O)Nc1cccc(C(C)(F)F)c1 (stereo not shown) = 1 to 10 nM

Lookup: Record request: IC50 value, item COC(=O)c1cccc(N2N=C(C)C(C(=O)Nc3cccc(C(C)(F)F)c3)C2=O)c1 (stereo not shown)
Found: < 1 nM

Lookup: Item under review: COc1ccc(N2N=C(C)C(C(=O)Nc3cccc(C(C)(F)F)c3)C2=O)cc1 (stereo not shown) . Reported IC50?
Found: < 1 nM

###

Collected IC50 values appear next to each entry.
# assayed.target: ACSS2 (Homo sapiens)
# protocol.description: biochemical

These recorded examples may help you get a feel for the data.
CCC(F)(F)c1cccc(NC(=O)C2C(=O)N(c3cnc(OC)cn3)N=C2C)c1 (stereo not shown) = 100 to 1000 nM
CCC(F)(F)c1cccc(NC(=O)C2C(=O)N(c3ccc(C#N)cc3)N=C2C)c1 (stereo not shown) = 0.01 to 6 nM
CCC(F)(F)c1cccc(NC(=O)C2C(=O)N(c3ccc4cc(C)n(C)c4c3)N=C2C)c1 (stereo not shown) = 0.01 to 6 nM
CCC(F)(F)c1cccc(NC(=O)C2C(=O)N(c3ccc(OC)c(-c4ccnc(C)c4)c3)N=C2C)c1 (stereo not shown) = 0.01 to 6 nM
COc1cccc(Cc2cc(-c3cccnc3)cc(N3N=C(C)C(C(=O)Nc4cccc(C(C)(F)F)c4)C3=O)c2)c1 (stereo not shown) = 6 to 100 nM

Lookup: Name the recorded IC50 for CCC(F)(F)c1cc(NC(=O)C2C(=O)N(c3ccc(OC(F)F)cc3)N=C2C)ccn1 (stereo not shown) .
Found: 6 to 100 nM

Lookup: Give the measured IC50 of CC1=NN(c2ccc(OC(F)F)cc2)C(=O)C1C(=O)N[C@H]1CC[C@@H](O)[C@@H](O)C1 (stereo partly shown) .
Found: 0.01 to 6 nM

###

# assayed.target: ACSS2 (Homo sapiens)
# protocol.description: biochemical
Each record here notes measured IC50.

Lookup: GET /values?readout=IC50&item= CCCC(=O)n1ccc2ccc(N3N=C(C)C(C(=O)Nc4cccc(C(F)(F)CC)c4)C3=O)cc21 (stereo not shown) [compound 478]
Found: 0.01 to 6 nM

Lookup: May I ask what IC50 has been recorded for CCC(F)(F)c1cccc(NC(=O)C2C(=O)N(c3ccc4ccn(C(=O)c5ccc(C)cc5)c4c3)N=C2C)c1 (stereo not shown) [compound 480] ?
Found: 6 to 100 nM

Lookup: Given the compound CCC(F)(F)c1cccc(NC(=O)C2C(=O)N(c3ccc4ccn(Cc5ccccc5)c4c3)N=C2C)c1 (stereo not shown) [compound 463] , what is its reported IC50?
Found: 0.01 to 6 nM

Lookup: Look at this compound and give its reported IC50. C/C=C(/F)c1cccc(NC(=O)C2C(=O)N(c3ccc(OC(F)F)cc3)N=C2C)c1 (stereo not shown) [compound 495]
Found: 0.01 to 6 nM

###

# assayed.target: ACSL5 (Homo sapiens)
# protocol.description: Acyl-CoA synthetases selectivity panel: ACSL5
# condition.details: human recombinant protein, substrate palmitate, AMP readout by HPLC; read-out: HPLC based activity assays IC50 (UM) ACSL5
assay.metric: IC50 (µM)
Field format: number, assumed µM, no unit text.

Below: 3 compounds and their reported IC50.
COc1ccc(N2N=C(C)C(C(=O)Nc3cccc(-c4ccco4)c3)C2=O)cc1 (stereo not shown) [compound 266] = 35
CC1=NN(c2ccccc2)C(=O)C1C(=O)Nc1cccc(-c2ccco2)c1 (stereo not shown) [compound 108] = 76
COC(=O)c1cccc(N2N=C(C)C(C(=O)Nc3cccc(-c4ccco4)c3)C2=O)c1 (stereo not shown) [compound 269] = 45

Could you now consider this next compound?
Lookup: Under ACSL5 (Homo sapiens): IC50 value of CC1=NN(c2ccc(C(F)(F)F)cc2)C(=O)C1C(=O)Nc1cccc(C(C)(F)F)c1 (stereo not shown) [compound 264] ?
Found: 115

###

# assayed.target: UniProt Q9NR19
# protocol.description: biochemical
pIC50: −log10 of the molar value.
# pIC50 listing for each entry below

CC1=NN(c2ccc(OC(F)F)cc2)C(=O)C1C(=O)Nc1ccnc(C#N)c1 (stereo not shown) = 6.00 to 7.00

Lookup: pIC50 lookup needed for CCC(F)(F)c1cccc(NC(=O)C2C(=O)N(c3ccc4ccn(C(=O)c5ccc(O)cc5)c4c3)N=C2C)c1 (stereo not shown) , thanks.
Found: 8.22 to 11.00

Lookup: Looking for the measured pIC50 of CCc1cccc(NC(=O)C2C(=O)N(c3ccc([N+](=O)[O-])cc3)N=C2C)c1 (stereo not shown) , can you help?
Found: 4.00 to 6.00

Lookup: Return reported pIC50; argument: CCC(F)(F)c1cccc(NC(=O)C2C(=O)N(c3ccc4ccn(C(=O)c5cccc(O)c5)c4c3)N=C2C)c1 (stereo not shown)
Found: 8.22 to 11.00

###

# assayed.target: UniProt Q9NR19
# protocol.description: biochemical
// values below are reported IC50

Worked set:
CCC(F)(F)c1cccc(NC(=O)C2C(=O)N(c3ccc4nc[nH]c4c3)N=C2C)c1 (stereo not drawn) = 0.01 to 6 nM
CCC(F)(F)c1cccc(NC(=O)C2C(=O)N(c3ccc4ccn(C(=O)c5ccccc5C)c4c3)N=C2C)c1 (stereo not drawn) = 0.01 to 6 nM

Lookup: Give the measured IC50 of CCC(F)(F)c1cccc(NC(=O)C2C(=O)N(c3ccc(OC)nn3)N=C2C)c1 (stereo not drawn) .
Found: 0.01 to 6 nM

###

# assayed.target: ACSL5 (Homo sapiens, UniProt Q9ULC5)
# Sequence (Q9ULC5 1-683): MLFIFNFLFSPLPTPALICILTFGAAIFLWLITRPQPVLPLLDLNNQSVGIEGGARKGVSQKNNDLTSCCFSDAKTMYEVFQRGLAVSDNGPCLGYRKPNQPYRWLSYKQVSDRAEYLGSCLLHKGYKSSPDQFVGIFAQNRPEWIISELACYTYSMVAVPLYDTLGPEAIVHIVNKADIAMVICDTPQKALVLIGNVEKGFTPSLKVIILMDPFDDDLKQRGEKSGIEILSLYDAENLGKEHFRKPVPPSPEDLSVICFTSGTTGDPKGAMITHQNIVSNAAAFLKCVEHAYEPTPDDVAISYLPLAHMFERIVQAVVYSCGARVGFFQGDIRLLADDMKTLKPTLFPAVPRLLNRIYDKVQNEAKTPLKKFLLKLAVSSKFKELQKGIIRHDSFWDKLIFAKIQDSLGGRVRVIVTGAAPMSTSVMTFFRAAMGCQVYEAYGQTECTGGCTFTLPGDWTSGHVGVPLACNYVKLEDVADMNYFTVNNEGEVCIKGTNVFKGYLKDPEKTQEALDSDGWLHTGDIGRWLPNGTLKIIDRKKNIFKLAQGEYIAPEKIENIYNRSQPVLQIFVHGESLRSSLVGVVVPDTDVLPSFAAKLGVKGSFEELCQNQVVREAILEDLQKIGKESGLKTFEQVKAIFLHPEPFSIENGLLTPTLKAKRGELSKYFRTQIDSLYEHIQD
# protocol.description: Acyl-CoA synthetases selectivity panel: ACSL5
# condition.details: human recombinant protein, substrate palmitate, AMP readout by HPLC; read-out: HPLC based activity assays IC50 (UM) ACSL5
# Source text: The biochemical assays for testing the selectivity of the compounds according to this invention, were done using human recombinant proteins (Cusabio, China). The readout of the assays was AMP levels, the […] of the reactions, by HPLC method. The acyl substrates (Sigma-Aldrich) of the assays were as followed: ACSS1/ACSS2—Acetate, AACS-Acetoacetyl, ACSF2—Octanoate and ACSL5—Palmitate. […]
assay.metric: IC50

Study these solved cases before continuing.
COC(=O)c1cccc(N2N=C(C)C(C(=O)Nc3cccc(C(C)(F)F)c3)C2=O)c1 (stereo not drawn) = > 100 µM
CC1=NN(c2ccccc2)C(=O)C1C(=O)Nc1cccc(C(C)(F)F)c1 (stereo not drawn) = > 100 µM

Lookup: # input compound: COc1ccc(N2N=C(C)C(C(=O)Nc3cccc(C(C)(F)F)c3)C2=O)cc1 (stereo not drawn) ; wanted: its IC50
Found: > 100 µM
